Parameter TGI: see the listing below.
- Test system: KM12 colon
- protocol_text: NCI tumour cell line growth inhibition, 48 h
Record the value in µM, omitting the unit from your answer.

COc1cc2c(/C=N\N=C(N)N)c[nH]c2cc1C    28
O=C1c2ccccc2-c2c1c1ccccc1c(=O)n2CCN1CCNCC1    3.47

Next molecule, please.
Inquiry: Requested read-out: TGI. Entry: CCCCCCCCCCNC(=O)CI
Reply text: 4.29

* * *

Parameter TGI: see the listing below.
- Test system: SF-295 CNS
- protocol_text: NCI tumour cell line growth inhibition, 48 h
Record the value in µM, omitting the unit from your answer.

CCN1c2ccccc2-c2c3c1cc(C)cc3c1ccccc1[n+]2CC    3.21
C(/C=C(\Nc1ccccc1)C12CC3CC(CC(C3)C1)C2)=Nc1ccccc1    36.5
N#CC1=C(c2ccccc2)NNC(c2ccc(Cl)cc2)CC1=O (stereo unspecified)    73.1
COc1ccc(/C=C2\C[C@H]3[C@@H]4CCC5=C/C(=N/O)CC[C@]5(C)[C@H]4CC[C@]3(C)\C2=N\O)cc1OC    88.4
CCN1CCCC(NCc2c3ccccc3c(CNC3CCCN(CC)C3)c3ccccc23)C1 (stereo unspecified)    14.7
Cn1cc(-c2csc(-c3cn(CCCCN4CCCCC4)c4ccccc34)n2)c2cccnc21    3.06

Inquiry: Requested read-out: TGI. Entry: CCCCCCCCCCNC(=O)CI
Reply text: 13.2

Inquiry: And O=C(Nc1ccccc1F)c1cc2ccc(O)cc2oc1=Nc1ccccc1F ?
Reply text: 8.48

Inquiry: And COc1ccc(-c2nccn2-c2ccc(OC)cc2)cc1 ?
Reply text: 74.2

* * *

- Test system: MDA-MB-435
- protocol_text: NCI tumour cell line growth inhibition, 48 h
experimental_readout: TGI (µM)
Record the value in µM, omitting the unit from your answer.

NCCCN1CCN(CCCNc2ccc3nnn4c5ccccc5c(=O)c2c34)CC1    60.1
CC(=O)O[C@H]1C(=O)[C@@]2(C)[C@H]([C@H](OC(=O)c3ccc(F)cc3)[C@]3(O)C[C@H](OC(=O)[C@H](O)[C@@H](NC(=O)c4ccccc4)c4ccccc4)C(C)=C1C3(C)C)[C@]1(OC(C)=O)CO[C@@H]1C[C@@H]2O    0.0049
COC(=O)CCc1cc(OC)c2c(c1)[C@H](C(=O)OC)[C@@H](c1ccc(O)c(OC)c1)O2    39.5
O=C(NCCCN(CCCCN(CCCNC(=O)C(F)(F)F)Cc1ccc2ccccc2c1)Cc1ccc2ccccc2c1)C(F)(F)F    3.87
C[C@@H]1S[C@H](c2ccccc2F)N2Cc3ccccc3N=C12    88.5
O=C(Nc1ccccc1F)c1cc2ccc(O)cc2oc1=Nc1ccccc1F    4.24
COc1cc2c(cc1OC)[C@H]1CN3CCC[C@H]3C=C1c1ccc(OC)c(O)c1-2    0.0269

Next compound, please.
Inquiry: Requested read-out: TGI. Entry: Clc1ccc(CSCCc2ccncc2)cc1Cl
Reply text: 49.5

* * *

- Test system: SNB-19 CNS
- protocol_text: NCI tumour cell line growth inhibition, 48 h
Parameter log10(TGI): see the listing below.
Base-10 log of TGI, unit µM.

Some compounds with recorded log10(TGI):
COc1ccc(/C(C)=C(\c2ccc(OCCN3CCCCCC3)cc2)c2ccc(OC(=O)C3CCCCC3)cc2)cc1    1.02
NCCCN1CCN(CCCNc2ccc3nnn4c5ccccc5c(=O)c2c34)CC1    1.67
CCOC(=O)c1nc2ccc(C(F)(F)F)cc2nc1Oc1ccc(C#N)cc1    1.55
O=C(c1ccco1)c1c(C(F)(F)F)n([O-])c2ccc(C(F)(F)F)cc2[n+]1=O    0.47

Next compound, please.
Inquiry: Requested read-out: log10(TGI). Entry: O=C(Nc1cc(Cl)ccc1O)c1ccc(Nc2ccnc(C(F)(F)F)c2)cc1
Reply text: 0.89

* * *

Parameter TGI: see the listing below.
- Test system: ACHN renal
- protocol_text: NCI tumour cell line growth inhibition, 48 h

Some molecules with recorded TGI:
O=C1NCCS(=O)(=O)N[C@@H](CC2=CC=CCC2)C(=O)N2CCCC12 (some centres undefined)    > 100 µM
COC(=O)C1C(O)C(C(=O)OC)C(C)N(C)C1C (centres undefined)    > 100 µM
O=C(Cc1ccccc1)NN1C(=O)/C(=C\c2ccccc2)SC1=Nc1ccccc1    > 100 µM
CC(C)(C)[Si](C)(C)OC1[C@@H](CNC(=O)NC(=O)CCl)O[C@@H](n2cnc3c(N)ncnc32)[C@H]1O[Si](C)(C)C(C)(C)C (some centres undefined)    1.11 µM

Inquiry: Requested read-out: TGI. Entry: COc1ccc(/C=C2\C[C@H]3[C@@H]4CCC5=C/C(=N/O)CC[C@]5(C)[C@H]4CC[C@]3(C)\C2=N\O)cc1OC
Reply text: > 100 µM

Inquiry: And COc1c(C)n(CCO)ccc1=O ?
Reply text: > 100 µM

Inquiry: And CCCC/C(=C\C1=C(C)C(=O)C(OC)=C(OC)C1=O)C(=O)O ?
Reply text: > 100 µM

Inquiry: And COc1cc(-c2cc(=O)c3cc4c(=O)cc(-c5cc(OC)c(OC)c(OC)c5)oc4cc3o2)cc(OC)c1OC ?
Reply text: > 85.1 µM

Inquiry: And C(/C=C(\Nc1ccccc1)C12CC3CC(CC(C3)C1)C2)=Nc1ccccc1 ?
Reply text: 26.4 µM

* * *

- Test system: UACC-257 melanoma
- protocol_text: NCI tumour cell line growth inhibition, 48 h
experimental_readout: TGI

Inquiry: Value wanted: TGI (UACC-257 melanoma) of entry Cc1cn(-c2cc(C(=O)Nc3cccc(-n4ccc5c(NC(=O)c6ccccc6)nccc54)c3)cc(C(F)(F)F)c2)cn1
Reply text: 19.7 µM

* * *

- Tested on: UACC-257 melanoma
- protocol_text: NCI tumour cell line growth inhibition, 48 h
Parameter TGI: see the listing below.

O=C(NC(COC(=O)C(Cc1ccccc1)NC(=O)c1ccccc1)Cc1ccccc1)c1ccccc1 (stereo not given)    > 50 µM
C=Cc1ccc(C)[n+](C[Si](C)(C)O[Si](C)(C)C[n+]2cc(C=C)ccc2C)c1    > 100 µM

Inquiry: Requested read-out: TGI. Entry: CCC(C)(O)c1cnc(CC(C)C)c(=O)n1O (stereo not given)
Reply text: > 100 µM

Inquiry: And Cc1ccc(OCCOCCOCCOCCOc2ccc(C)n(O)c2=S)c(=S)n1O ?
Reply text: > 29.5 µM

Inquiry: And CCCc1cc(=O)n2c(C(=O)Nc3ccc(Cl)cc3C)c(C(=O)Nc3ccc(F)cc3)sc2n1 ?
Reply text: 42.4 µM

* * *

- Test system: HCT-116 colon
- protocol_text: NCI tumour cell line growth inhibition, 48 h; in the data active means GI50 below about 0.43 µM; inactive means the rest
Respond only with the outcome that fits, drawn from active, inactive

COc1cc(/C=C\c2cc(OC)c(OC)c(OC)c2)cc(N/C=C\C(=O)c2c[nH]c3ccccc23)c1OC    inactive
Nc1cc(Br)c(-c2nnc(CCC(=O)c3nc4ccccc4[nH]3)o2)c(Br)c1    inactive
COc1ccc(-c2nn(-c3cccc(Cl)c3)cc2-c2cc(-c3ccccc3)[nH]c(=O)c2C#N)cc1    inactive
C#CCOc1cccc(Nc2ncnc3c(NC(=O)C=C)cccc23)c1    inactive
CCCc1cc(=O)n2c(C(=O)Nc3ccc(Cl)cc3C)c(C(=O)Nc3ccc(F)cc3)sc2n1    inactive
ClCCN(CCCl)c1ccc(CNc2ccccc2)cc1    inactive
CC(C)c1[nH]nc2c1N=C(c1ccccc1Cl)c1cc([N+](=O)[O-])ccc1N2    inactive
Nc1cc2c(cc1Br)[nH]c(=O)c1ccccc12    inactive
O=C(Nc1cc(Cl)ccc1O)c1ccc(Nc2ccnc(C(F)(F)F)c2)cc1    inactive
N#CCCN1C/C(=C/c2ccc(Br)cc2)C(=O)/C(=C/c2ccc(Br)cc2)C1    active

Inquiry: Assay outcome for CC1(C)CN=C(NN=C(/C=C/c2ccc(C(F)(F)F)cc2)/C=C/c2ccc(C(F)(F)F)cc2)NC1 : what was it?
Reply text: inactive

Inquiry: And Cc1cc(Nc2nc(-c3cn(-c4ccc(Cl)cc4)nn3)nc3ccccc23)n[nH]1 ?
Reply text: inactive

Inquiry: And COC(=O)c1cc2c(o1)-c1nccc3c1c(nc1ccccc13)C2=O ?
Reply text: inactive

* * *

- Test system: IGROV1 ovarian
- protocol_text: NCI tumour cell line growth inhibition, 48 h
experimental_readout: TGI

Some molecules with recorded TGI:
CN(C)CCNCCN    > 100 µM
O=C1Sc2ccccc2C(=O)N2CSCC12 (stereo unspecified)    > 100 µM

Inquiry: Requested read-out: TGI. Entry: O=C(/C(=C\c1c(-c2ccccc2)[nH]c2ccccc12)S(=O)(=O)c1ccccc1)c1ccccc1
Reply text: > 100 µM

Inquiry: And O=C(Nc1cc(Nc2ncccc2-c2ncnc3nc[nH]c23)ccc1F)c1cc(C(F)(F)F)cc(C(F)(F)F)c1 ?
Reply text: 7.2 µM

Inquiry: And CCCc1cc(=O)n2c(C(=O)Nc3ccc(Cl)cc3C)c(C(=O)Nc3ccc(F)cc3)sc2n1 ?
Reply text: 33.6 µM

Inquiry: And Cc1ccc(CC[P+](=O)CCc2ccc(C)nc2)cn1 ?
Reply text: > 100 µM

Inquiry: And CC(C)=CCC/C(C)=C/COC(C)(C)C1=CCC(C)CC1 (stereo unspecified) (tested in a mixture with another compound) ?
Reply text: > 100 µM

Inquiry: And COc1c(O)c2c3c(c(C)cc(O)c3c1O)C(=O)C(O)(C(C)(C)C(C)=O)C2=O (stereo unspecified) ?
Reply text: > 100 µM

Inquiry: And N#CCCN1C/C(=C/c2ccc(Br)cc2)C(=O)/C(=C/c2ccc(Br)cc2)C1 ?
Reply text: 5.35 µM

Inquiry: And Nc1nc(Cl)cc(NCC2(CO)CCC(CCc3ccccc3)C2)n1 (stereo unspecified) ?
Reply text: 37 µM

Inquiry: And CSc1c(C#N)c(N)n(-c2ccc(C)cc2)c(=O)c1C#N ?
Reply text: > 100 µM

These data points were gathered from PubChem BioAssay (NCI).
